Measured EC50 accompanies every entry in the list below.
Biological target: human activated kallikrein enzyme (Homo sapiens)
Sequence (P03952 391-638 limits assumed): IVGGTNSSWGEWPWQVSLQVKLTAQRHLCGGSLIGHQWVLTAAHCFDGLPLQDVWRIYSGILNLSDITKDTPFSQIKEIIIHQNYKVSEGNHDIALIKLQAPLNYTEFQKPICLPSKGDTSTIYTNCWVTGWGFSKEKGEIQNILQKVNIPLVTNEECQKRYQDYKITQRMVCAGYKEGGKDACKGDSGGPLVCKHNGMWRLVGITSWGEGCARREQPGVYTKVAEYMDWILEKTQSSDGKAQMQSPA
Sequence (P03952 20-390 partner limits assumed): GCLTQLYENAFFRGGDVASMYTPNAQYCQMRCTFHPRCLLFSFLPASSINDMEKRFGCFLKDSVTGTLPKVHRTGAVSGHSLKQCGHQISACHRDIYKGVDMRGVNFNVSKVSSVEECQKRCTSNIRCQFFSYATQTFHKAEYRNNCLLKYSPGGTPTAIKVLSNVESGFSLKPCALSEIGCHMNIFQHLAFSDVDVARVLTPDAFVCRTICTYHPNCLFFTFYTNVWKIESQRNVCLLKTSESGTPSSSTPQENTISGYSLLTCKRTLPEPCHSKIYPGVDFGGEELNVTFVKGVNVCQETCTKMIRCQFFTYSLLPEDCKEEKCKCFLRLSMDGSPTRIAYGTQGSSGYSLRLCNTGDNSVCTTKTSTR
Experiment: Inhibition of human activated plasma kallikrein, fluorogenic peptide substrate (PFR-AMC) assay, 500 pM enzyme format
Conditions: format with 500 pM activated kallikrein, 300 uM PFR-AMC, 30 min preincubation, 10 min reaction, room temperature; read-out: Primary Dose Response Assay: Average EC50

- MOLECULE: "O=C(Nc1cc(NCc2cn3cc(C4CC4)ccc3n2)ncn1)OCC(O)c1cccc(Cl)c1 (centres unmarked) [Compound I-9]"
  EC50: "5 to 50 nM"
- MOLECULE: "O=C(Nc1nccc2nn(Cc3cn4cc(C5CC5)ccc4n3)cc12)OCc1cc(Cl)ccc1-n1cnnn1 [Compound I-22]"
  EC50: "< 5 nM"
- MOLECULE: "Cc1ccnc(COC(=O)Nc2cc(NCc3cn4cc(C5CC5)ccc4n3)ncn2)n1 [Compound I-34]"
  EC50: "5 to 50 nM"
- MOLECULE: "O=C(Nc1cc2c(cn1)ncn2Cc1cn2cc(C3CC3)ccc2n1)OCc1cc(Cl)ccc1-n1cnnn1 [Compound I-23]"
  EC50: "< 5 nM"
- MOLECULE: "O=C(Nc1cc(OCc2cn3cc(C4CC4)ccc3n2)ccn1)OCc1cc(Cl)ccc1-n1cnnn1 [Compound I-12]"
  EC50: "< 5 nM"
- MOLECULE: "O=C(NCc1cc(Cl)ccc1-n1cnnn1)Nc1cc(NCc2cn3cc(C4CC4)ccc3n2)ccn1 [Compound I-10]"
  EC50: "< 5 nM"
- MOLECULE: "C[C@H](OC(=O)Nc1cc(NCc2cn3cc(C4CC4)ccc3n2)ncn1)c1cccc(Cl)c1 [Compound I-3]"
  EC50: "500 to 9000 nM"
- MOLECULE: "O=C(NCc1cc(Cl)ccn1)Nc1cc(NCc2cn3cc(C4CC4)ccc3n2)ncn1 [Compound I-27]"
  EC50: "50 to 500 nM"
- MOLECULE: "CC(OC(=O)Nc1cc(NCc2cn3cc(C4CC4)ccc3n2)ccn1)c1cccc(Cl)c1 (centres unmarked) [Compound I-15]"
  EC50: "< 5 nM"
- MOLECULE: "O=C(Nc1nccc2nn(Cc3cn4cc(C5CC5)ccc4n3)cc12)OCc1cccc(Cl)c1 [Compound I-19]"
  EC50: "5 to 50 nM"
- MOLECULE: "CC(OC(=O)Nc1cc(NCc2cn3cc(C4CC4)ccc3n2)ccn1)c1cc(Cl)ccc1-n1cnnn1 (centres unmarked) [Compound I-21]"
  EC50: "< 5 nM"
- MOLECULE: "O=C(Nc1cc(N2C[C@@H](O)C[C@@H]2c2cn3cc(C4CC4)ccc3n2)ncn1)N1CC(c2ncccn2)C1 [Compound I-33]"
  EC50: "50 to 500 nM"
- MOLECULE: "O=C(Nc1cc(N2C[C@@H](O)C[C@@H]2c2cn3cc(C4CC4)ccc3n2)ncn1)OCc1cc(Cl)ccn1 [Compound I-28]"
  EC50: "< 5 nM"
- MOLECULE: "O=C(Nc1cc(NCc2cn3cc(C4CC4)ccc3n2)ccn1)OCc1cc(Cl)ccc1-n1cnnn1 [Compound I-11]"
  EC50: "< 5 nM"
- MOLECULE: "O=C(Nc1cc(NCc2cn3cc(C4CC4)ccc3n2)ncn1)OCc1cccc(Cl)c1 [Compound I-1]"
  EC50: "5 to 50 nM"
- MOLECULE: "O=C(Nc1cc2c(cn1)ncn2Cc1cn2cc(C3CC3)ccc2n1)OCc1cccc(Cl)c1 [Compound I-16]"
  EC50: "50 to 500 nM"
- MOLECULE: "CC(OC(=O)Nc1cc2c(cn1)ncn2Cc1cn2cc(C3CC3)ccc2n1)c1cccc(Cl)c1 (centres unmarked) [Compound I-17]"
  EC50: "50 to 500 nM"
- MOLECULE: "O=C(Nc1cc(NCc2cn3cc(C4CC4)ccc3n2)ncn1)OCc1cc(Cl)ccn1 [Compound I-26]"
  EC50: "< 5 nM"
- MOLECULE: "COc1ccnc(CNC(=O)Nc2cc(NCc3cn4cc(C5CC5)ccc4n3)ncn2)n1 [Compound I-30]"
  EC50: "500 to 9000 nM"
- MOLECULE: "O=C(Nc1cc(N2C[C@@H](O)C[C@@H]2c2cn3cc(C4CC4)ccc3n2)ncn1)N1CC(c2ccccc2)C1 [Compound I-31]"
  EC50: "500 to 9000 nM"
- MOLECULE: "COc1cccc(COC(=O)Nc2cc(NCc3cn4cc(C5CC5)ccc4n3)ncn2)c1 [Compound I-4]"
  EC50: "50 to 500 nM"
- MOLECULE: "O=C(Nc1cc(NCc2cn3cc(C4CC4)ccc3n2)ccn1)OCc1cccc(Cl)c1 [Compound I-13]"
  EC50: "< 5 nM"
- MOLECULE: "O=C(Nc1cn2c(Cc3cn4cc(C5CC5)ccc4n3)nnc2cn1)OCc1cccc(Cl)c1 [Compound I-14]"
  EC50: "50 to 500 nM"
- MOLECULE: "O=C(NCc1cccc(Cl)c1)Nc1cc(NCc2cn3cc(C4CC4)ccc3n2)ncn1 [Compound I-24]"
  EC50: "500 to 9000 nM"
- MOLECULE: "C[C@@H](OC(=O)Nc1cc(NCc2cn3cc(C4CC4)ccc3n2)ncn1)c1cccc(Cl)c1 [Compound I-2]"
  EC50: "< 5 nM"
- MOLECULE: "O=C(Nc1cc2c(cn1)nnn2Cc1cn2cc(C3CC3)ccc2n1)OCc1cccc(Cl)c1 [Compound I-20]"
  EC50: "50 to 500 nM"
- MOLECULE: "O=C(Nc1cc(NCc2cn3cc(C4CC4)ccc3n2)ncn1)OCc1cc(Cl)ccc1-n1cnnn1 [Compound I-8]"
  EC50: "< 5 nM"
- MOLECULE: "O=C(NCc1nccc(Cl)n1)Nc1cc(NCc2cn3cc(C4CC4)ccc3n2)ncn1 [Compound I-29]"
  EC50: "50 to 500 nM"
- MOLECULE: "O=C(Nc1cc(NCc2cn3cc(C4CC4)ccc3n2)ncn1)N1CC(c2cccc(Cl)c2)C1 [Compound I-25]"
  EC50: "> 9000 nM"
- MOLECULE: "CC(OC(=O)Nc1cc(NCc2cn3cc(C4CC4)ccc3n2)ncn1)c1cccc(Cl)c1F (centres unmarked) [Compound I-7]"
  EC50: "5 to 50 nM"
- MOLECULE: "O=C(Nc1cc(NCc2cn3cc(C4CC4)ccc3n2)ncn1)NC1Cc2ccc(Cl)cc21 (centres unmarked) [Compound I-32]"
  EC50: "500 to 9000 nM"
- MOLECULE: "CCC(OC(=O)Nc1cc(NCc2cn3cc(C4CC4)ccc3n2)ncn1)c1cccc(Cl)c1 (centres unmarked) [Compound I-6]"
  EC50: "50 to 500 nM"
